# tested-target: T1, cynomolgus suPAR (cynomolgus, UniProt Q9GK78 23-303, limits assumed)
# T1 construct: Target antigen of the off-rate screen; also called cynomolgus uPAR; cynoPLAUR-His
# T1 sequence (Q9GK78 23-303 limits assumed): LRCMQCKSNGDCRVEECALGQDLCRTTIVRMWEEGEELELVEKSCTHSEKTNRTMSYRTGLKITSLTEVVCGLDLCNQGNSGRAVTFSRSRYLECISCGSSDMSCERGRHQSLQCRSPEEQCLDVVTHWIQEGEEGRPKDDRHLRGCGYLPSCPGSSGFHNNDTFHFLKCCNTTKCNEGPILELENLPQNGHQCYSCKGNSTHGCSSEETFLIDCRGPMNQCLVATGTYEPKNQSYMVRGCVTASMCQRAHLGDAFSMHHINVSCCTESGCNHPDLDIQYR
# experimental-details: BLI (Octet) off-rate screen of scFv clones
Entries and their measured koff follow.
Include the unit right after the number.

Past entries and their recorded results:
>>> result("suPAR_DB03_A09 (scFv, V domains shown, screened as scFv) VH: QVQLVQSGAEVKKPGASVKVSCKASGYTFTSHYVHWVRQAPGQGLEWMGWIDHSNGSTIYDQKFQGRVTMTRDTSTSTVYMELSSLRSEDTAVYYCARGYDVDWFVYWGQGTLVTVSS VL: DIQMTQSPSSLSASVGDRVTITCSARQSISYMYWYQQKPGKAPKLLIYRTSNLASGVPSRFSGSGSGTDFTLTISSLQPEDFATYYCQQYHSYPPTFGGGTKVEIK")
"0.000254 s⁻¹"
>>> result("suPAR_DB02_H06 (scFv, V domains shown, screened as scFv) VH: QVQLVQSGAEVKKPGASVKVSCKASGFNIKDYYIHWVRQAPGQGLEWMGWIDPEGGNTIYAQKFQGRVTMTRDTSTSTVYMELSSLRSEDTAVYYCARGYDVDWFVYWGQGTLVTVSS VL: DIQMTQSPSSLSASVGDRVTITCRARSSVSYMYWYQQKPGKAPKLLIYRTSNLASGVPSRFSGSGSGTDFTLTISSLQPEDFATYYCQQYHSYPPTFGGGTKVEIK")
"0.000393 s⁻¹"

// below: koff requested for another binder
Request: Entry suPAR_DB03_D02 (scFv, V domains shown, screened as scFv) VH: QVQLVQSGAEVKKPGASVKVSCKASGYTFTRYYLHWVRQAPGQGLEWMGWIDPENGNTIYAQKFQGRVTMTRDTSTSTVYMELSSLRSEDTAVYYCARGYDVDWFVYWGQGTLVTVSS VL: DIQMTQSPSSLSASVGDRVTITCSARSSVSYMYWYQQKPGKAPKLLIYRTSNLASGVPSRFSGSGSGTDFTLTISSLQPEDFATYYCQQYHSYPPTFGGGTKVEIK needs its koff filled in; supply it.
Response: 0.000241 s⁻¹
